From: PubChem BioAssay (NCI)

Reported values of TGI for individual entries
# Tested on: RXF 393 renal
# assay-text: NCI tumour cell line growth inhibition, 48 h

# molecule, TGI
records = [
    ("O=C(NC(=S)NNC(=S)NNc1ccccc1)c1ccccc1", "> 100 µM"),
]

Returns the measured TGI for the input molecule. Input: Nc1nc(N)c(N=O)c(Nc2ccc(I)cc2)n1
55.2 µM

Now consider Nc1nnc(N)n1NC(=O)C(=O)Nc1ccc([N+](=O)[O-])cc1 .
> 100 µM

---

# Test system: SN12C renal
# assay-text: NCI tumour cell line growth inhibition, 48 h
measured-parameter: TGI

Returns the measured TGI for the input compound. Input: O=C(NCCNCCNCCNC(=O)c1cc(-c2ccccc2)nc2ccccc12)c1cc(-c2ccccc2)nc2ccccc12
11.2 µM

Now consider NCCCC1NC(=O)/C(=C(O)/C=C/C2CCC[C@@H]2CC2SCCS2)C1=O (stereo partly specified) .
> 100 µM

Now consider Cc1cc(S(=O)(=O)NC2=NC(c3ccccc3)c3ccccc3N2)c(S)cc1Cl (stereo unspecified) .
> 100 µM

Now consider COc1cc2ccnc3c2c(c1OC)-c1ccc(=O)ccc1-3 .
> 100 µM

Now consider NC1CC(=O)c2csc(Cl)c21 (stereo unspecified) .
14.2 µM

Now consider Cc1nc(-c2nc(C)c(C(=O)NN(C)C)s2)sc1C(=O)NN(C)C .
> 100 µM
